The measurements presented in this section are drawn from the RNAGym collection of RNA variant scans (doi:10.1073/pnas.2313332121).

B1: TPR t1 (parent)
chain: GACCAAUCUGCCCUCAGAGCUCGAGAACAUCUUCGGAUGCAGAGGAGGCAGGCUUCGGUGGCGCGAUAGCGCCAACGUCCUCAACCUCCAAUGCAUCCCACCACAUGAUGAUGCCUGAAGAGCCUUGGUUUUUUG

# Variants of: B1
# assay-overview: polymerase ribozyme fitness, log enrichment relative to wild type (log ratio); higher = more active; in vitro selection for triplet polymerase activity
Classification field: enter class 1 for polymerase ribozyme fitness (log ratio) values not below -1, class 0 for values below it.

Task: Is it the case that C12U G63U U78A C79U has polymerase ribozyme fitness (log ratio) reaching or exceeding -1?
Output: class 1

Task: Is it the case that A43U G63U G113U A119G has polymerase ribozyme fitness (log ratio) reaching or exceeding -1?
Output: class 0

Task: Is it the case that U7G C104A has polymerase ribozyme fitness (log ratio) reaching or exceeding -1?
Output: class 0

Task: Is it the case that C72A U130A has polymerase ribozyme fitness (log ratio) reaching or exceeding -1?
Output: class 1

Task: Is it the case that C11G C13U A84U A91U G93C has polymerase ribozyme fitness (log ratio) reaching or exceeding -1?
Output: class 0

Task: Is it the case that C70G U130A has polymerase ribozyme fitness (log ratio) reaching or exceeding -1?
Output: class 0

Task: Is it the case that U112G G120U G122C has polymerase ribozyme fitness (log ratio) reaching or exceeding -1?
Output: class 0

Task: Is it the case that A6U C72U U96C has polymerase ribozyme fitness (log ratio) reaching or exceeding -1?
Output: class 1

Task: Is it the case that A27G U125G has polymerase ribozyme fitness (log ratio) reaching or exceeding -1?
Output: class 0

Task: Is it the case that U112A U131A has polymerase ribozyme fitness (log ratio) reaching or exceeding -1?
Output: class 1

Task: Is it the case that U125G U132C has polymerase ribozyme fitness (log ratio) reaching or exceeding -1?
Output: class 1

Task: Is it the case that G71A C124A has polymerase ribozyme fitness (log ratio) reaching or exceeding -1?
Output: class 1

Task: Is it the case that A84U G127A has polymerase ribozyme fitness (log ratio) reaching or exceeding -1?
Output: class 1

Task: Is it the case that C8U A121U has polymerase ribozyme fitness (log ratio) reaching or exceeding -1?
Output: class 1

Task: Is it the case that C28U C73U U81A U106C has polymerase ribozyme fitness (log ratio) reaching or exceeding -1?
Output: class 0

Task: Is it the case that C20G C56A C124U has polymerase ribozyme fitness (log ratio) reaching or exceeding -1?
Output: class 0

Task: Is it the case that G58U G60A U87A A103U has polymerase ribozyme fitness (log ratio) reaching or exceeding -1?
Output: class 0

Task: Is it the case that C4A C115U G120A U131A has polymerase ribozyme fitness (log ratio) reaching or exceeding -1?
Output: class 0

Task: Is it the case that A18C G58U G69C C89U U106A G110U has polymerase ribozyme fitness (log ratio) reaching or exceeding -1?
Output: class 0

Task: Is it the case that A24U U112A has polymerase ribozyme fitness (log ratio) reaching or exceeding -1?
Output: class 0

Task: Is it the case that G61C A84U has polymerase ribozyme fitness (log ratio) reaching or exceeding -1?
Output: class 0

Task: Is it the case that U38C G47U G61C A95C has polymerase ribozyme fitness (log ratio) reaching or exceeding -1?
Output: class 0

Task: Is it the case that G44U C56A G57A C104U U106G has polymerase ribozyme fitness (log ratio) reaching or exceeding -1?
Output: class 0

Task: Is it the case that A27C C62A A119G A121U has polymerase ribozyme fitness (log ratio) reaching or exceeding -1?
Output: class 0

Task: Is it the case that U33A C82A has polymerase ribozyme fitness (log ratio) reaching or exceeding -1?
Output: class 0

Task: Is it the case that U14G G51A G113A G120A A121G has polymerase ribozyme fitness (log ratio) reaching or exceeding -1?
Output: class 0

Task: Is it the case that C88U G120U U132C has polymerase ribozyme fitness (log ratio) reaching or exceeding -1?
Output: class 1

Task: Is it the case that C73U A90C A95C has polymerase ribozyme fitness (log ratio) reaching or exceeding -1?
Output: class 0

Task: Is it the case that A2C G69C A121U has polymerase ribozyme fitness (log ratio) reaching or exceeding -1?
Output: class 1

Task: Is it the case that C22U A46C has polymerase ribozyme fitness (log ratio) reaching or exceeding -1?
Output: class 0

Task: Is it the case that C20U G51U G71A has polymerase ribozyme fitness (log ratio) reaching or exceeding -1?
Output: class 0

Task: Is it the case that G57U C94A has polymerase ribozyme fitness (log ratio) reaching or exceeding -1?
Output: class 0

Task: Is it the case that C11U C15U G45U C64U U78A C80U C82U A111U has polymerase ribozyme fitness (log ratio) reaching or exceeding -1?
Output: class 0

Task: Is it the case that C85G U130A G135U has polymerase ribozyme fitness (log ratio) reaching or exceeding -1?
Output: class 0

Task: Is it the case that G36A C70A has polymerase ribozyme fitness (log ratio) reaching or exceeding -1?
Output: class 0

Task: Is it the case that G42C G57A A105U has polymerase ribozyme fitness (log ratio) reaching or exceeding -1?
Output: class 0

Task: Is it the case that G71U C73A A83U has polymerase ribozyme fitness (log ratio) reaching or exceeding -1?
Output: class 0

Task: Is it the case that G36C A50U has polymerase ribozyme fitness (log ratio) reaching or exceeding -1?
Output: class 0

Task: Is it the case that C53G A119U C123A has polymerase ribozyme fitness (log ratio) reaching or exceeding -1?
Output: class 0

Task: Is it the case that G10A C98U C115A has polymerase ribozyme fitness (log ratio) reaching or exceeding -1?
Output: class 0

Task: Is it the case that G60U C101A has polymerase ribozyme fitness (log ratio) reaching or exceeding -1?
Output: class 1
